# Test system: SH-SY5Y cells
# procedure text: AK (adenylate kinase) release ToxiLight cytotoxicity assay; also: reference of the scale not given here
# condition description: PKIS2 primary screening
Decide using AK: a value greater than or equal to 80 is true (1), a smaller one is false (0).

1. Cc1c(Cn2c(C)nn3c(=O)cc(N4CCO[C@H](C)C4)nc23)cccc1C(F)(F)F [UNC10225403A]; true (1)

Entry Cl.Cl.Cl.Fc1ccc(-c2ncn(C3CCNCC3)c2-c2ccnc(Nc3ccccc3)n2)cc1 [UNC10225420A] : is its AK no less than 80?
true (1)

Item: N#Cc1cnc2cc(-c3cnc(CNCCN4CCOCC4)s3)ccc2c1Nc1ccc(Oc2ccccc2)cc1 [UNC10225079A]
false (0)

Record: COC(=O)Nc1nc2ccc(Oc3ccc(CC(=O)Nc4cc(C(F)(F)F)ccc4F)cc3)cc2[nH]1 [GW680903]
false (0)
